Where do the numbers come from? From patent US20220204611A1.

# tested-system: T1, recombinant soluble human TREM2 protein (human TREM2 ECD-FlagHis) (human, UniProt Q9NZC2 19-174)
# T1 sequence: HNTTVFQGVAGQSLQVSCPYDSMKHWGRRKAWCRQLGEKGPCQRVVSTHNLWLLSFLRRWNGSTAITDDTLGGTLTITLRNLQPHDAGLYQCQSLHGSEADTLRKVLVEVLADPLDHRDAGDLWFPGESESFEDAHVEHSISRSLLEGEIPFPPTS
# test-details: Octet BLI binning; competitor: load Ab 33B12

- binder: "5E3 (antibody, human IgG2, V domains shown, human IgG2 from hybridoma) VH: QVQLVQSGAEVKKPGASVKVSCKASGYTFTGYYIHWVRQAPGLGLEWMGWINPYSGGTTSAQKFQGRVTMTRDTSISSAYMELSRLRSDDTAVYYCARDGGYLALYGTDVWGQGTTVTVSS VL: DIQMTQSPSSLSASVGDRVTITCRASQGISNYLAWFQQKPGKAPKSLIYAASSLQSGVPSKFSGSGSGTDFTLTISSLQPEDFATYYCQQYSTYPFTFGPGTKVDIK"
  sandwich binding signal: -0.055
- binder: "10E3 (antibody, human IgG2, V domains shown, human IgG2 from hybridoma) VH: EVQLVQSGAEVKKPGESLMISCKGSGYSFTNYWIGWVRQMPGKGLEWMGIIYPGDSDTRYSPSFQGQVTISADKSISTAYLQWSSLKASDTAMYFCARRRQGIWGDALDIWGQGTLVTVSS VL: EIVMTQSPATLSVSPGERATLSCRASQSVSSNLAWFQQKPGQAPRLLIYGASTRATGIPARFSVSGSGTEFTLTISSLQSEDFAFYYCLQDNNWPPTFGPGTKVDIK"
  sandwich binding signal: 0.303
- binder: "32E3 (antibody, human IgG2, V domains shown, human IgG2 from hybridoma) VH: EVQLVQSGAEVKKPGESLKISCKGSGYSFTSYWIGWVRQMPGKGLEWMGIIYPGDSDTRYSPSFQGQVTISADKSISTAYLQWSTLKASDTAIYYCARHDIIPAAPGAFDIWGQGTMVTVSS VL: EFVLTQSPGTLSLSPGERATLSCRASQIISSNYLAWYQQKPGQAPRLLIYSASSRATGIPDRFSGSGSGTDFTLTISRLEPEDFAVYYCQQFDSSPITFGRGTRLDIK"
  sandwich binding signal: 0.132
- binder: "26C10 (antibody, human IgG2, V domains shown, human IgG2 from hybridoma) VH: EVQLVESGGALVQPGGSLRLSCAASGFTFSSFGMSWVRQAPGKGLEWVSYISSSSFTIYYADSVKGRFTISRDNAKNSFYLQMNSLRDEDTAVYFCVREGGITMVRGVSSYGMDVWGQGTTVTVSS VL: SFELTQPPSVSVSPGQTASITCSGDKLGDKYVCWYQQKPGQSPMLVIYQDTKRPSGIPERFSGSNSGNTATLTISGTQAMDEADYYCQAWDSSTVVFGGGTKLTVL"
  sandwich binding signal: -0.033
- binder: "6E7 (antibody, human IgG2, V domains shown, human IgG2 from hybridoma) VH: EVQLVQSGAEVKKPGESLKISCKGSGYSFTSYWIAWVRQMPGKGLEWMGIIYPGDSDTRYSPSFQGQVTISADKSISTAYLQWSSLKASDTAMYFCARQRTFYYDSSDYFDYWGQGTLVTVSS VL: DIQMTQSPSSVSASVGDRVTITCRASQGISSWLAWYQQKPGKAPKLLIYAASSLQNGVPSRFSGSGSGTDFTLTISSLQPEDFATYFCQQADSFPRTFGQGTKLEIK"
  sandwich binding signal: 0.434
